The reported measurements were obtained from paper PMC10706242.

biological target: rec-CgHMGR (CgHMGR) (Nakaseomyces glabratus); construct: gene HMG1; transmembrane region removed), pPICZB, His-tagged, expressed in Pichia pastoris X-33, Ni-NTA purified, approx. 48 kDa by SDS-PAGE; assay: NADPH oxidation at […] nm; assay type: biochemical; conditions: read-out: Inhibition (% of Relative Activity) *
Sequence (Q6FKH6 619-1056 limits assumed): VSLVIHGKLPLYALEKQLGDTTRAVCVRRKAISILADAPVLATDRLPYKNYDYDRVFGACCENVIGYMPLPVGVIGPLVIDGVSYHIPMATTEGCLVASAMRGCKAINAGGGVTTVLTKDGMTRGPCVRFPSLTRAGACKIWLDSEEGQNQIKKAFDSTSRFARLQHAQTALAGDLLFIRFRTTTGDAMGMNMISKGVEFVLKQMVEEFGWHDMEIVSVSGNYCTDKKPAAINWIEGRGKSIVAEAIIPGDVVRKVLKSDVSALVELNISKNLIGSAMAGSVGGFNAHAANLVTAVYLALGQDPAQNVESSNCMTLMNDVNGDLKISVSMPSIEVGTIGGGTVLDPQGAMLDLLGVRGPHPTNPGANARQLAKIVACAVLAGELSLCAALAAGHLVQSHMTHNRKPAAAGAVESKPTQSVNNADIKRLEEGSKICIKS
inhibition at 100 µM: recorded values
measured quantity: inhibition at 100 µM (%)

[[record]]
structure_string = "CCCc1cc(OC)c(OC)cc1O"
measured_quantity = "inhibition at 100 µM"
units_label = "%"
numeric_readout = 66

[[record]]
structure_string = "CCCc1cc(OC)c(OCC(=O)OC)cc1[N+](=O)[O-]"
measured_quantity = "inhibition at 100 µM"
units_label = "%"
numeric_readout = 73

[[record]]
structure_string = "CCc1ccc(OCC(=O)OC)c([N+](=O)[O-])c1"
measured_quantity = "inhibition at 100 µM"
units_label = "%"
numeric_readout = 86

[[record]]
structure_string = "CCCc1cc(OC)c(OCC(=O)OC)cc1O"
measured_quantity = "inhibition at 100 µM"
units_label = "%"
numeric_readout = 89

